Target: LHRH receptors (Rattus norvegicus, UniProt P30969)
Construct: Pituitary membranes containing LHRH receptors are prepared in batches from quick-frozen rat pituitaries; tissue Hilltop Labs; host or cells: rat pituitary membranes
Sequence (P30969 1-327): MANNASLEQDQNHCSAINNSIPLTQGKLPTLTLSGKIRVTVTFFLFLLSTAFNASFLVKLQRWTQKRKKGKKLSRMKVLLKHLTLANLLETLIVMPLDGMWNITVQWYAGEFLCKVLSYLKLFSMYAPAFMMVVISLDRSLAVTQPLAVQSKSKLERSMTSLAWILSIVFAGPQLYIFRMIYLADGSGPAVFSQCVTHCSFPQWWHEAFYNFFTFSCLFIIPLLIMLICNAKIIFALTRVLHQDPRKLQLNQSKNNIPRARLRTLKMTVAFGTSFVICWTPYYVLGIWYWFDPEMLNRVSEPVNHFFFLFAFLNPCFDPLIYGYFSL
Test: Receptor Binding (radioligand receptor binding assay)
Details: table 3; rat pituitary membranes, radioiodinated [D-Leu^6 -des Gly^10 ]-LHRH ethyl amide 50 pM, 2 hours at 4° C.; read-out: Receptor Binding pkI (converted)
Numbered stars: 1 amine (or outer) side, 2 acyl side, 3 side chain; on linkers, the order of the positions; unused ones are H or OH. Square brackets hold non-standard residues; d marks the D form. Peptide text beside a SMILES is read from it. * marks the point of attachment. Acryloyl(3-(pyridin-3-yl)) = O=C(C=Cc1cccnc1)*; Morpholide = C1CN(*)CCO1; CO = O=C([*:1])[*:2]
observed.property: Ki (nM)
Report as a plain number; the unit nM is understood.

[[record]]
molecule = "CCNC(=O)[C@@H]1CCCN1C(=O)[C@H](CCCNC(=N)N)NC(=O)[C@H](CC(C)C)NC(=O)[C@@H](Cc1c[nH]c2ccccc12)NC(=O)[C@H](Cc1ccc(O)cc1)NC(=O)[C@H](CO)NC(=O)[C@@H](Cc1c[nH]c2ccccc12)NC(=O)[C@H](Cc1ccccc1)NC(=O)N1CCOCC1 [Compound 107] ({Morpholide-CO}-F[dW]SY[dW]LRP-NHEt)"
test_value = 0.257


Now look at this entry.
Given CCNC(=O)[C@@H]1CCCN1C(=O)[C@H](CCCNC(=N)N)NC(=O)[C@H](CC(C)C)NC(=O)[C@@H](Cc1c[nH]c2ccccc12)NC(=O)[C@H](Cc1ccc(O)cc1)NC(=O)[C@H](CO)NC(=O)C=Cc1cccnc1 [Compound 43] ({Acryloyl(3-(pyridin-3-yl))}-SY[dW]LRP-NHEt) , respond with its Ki.
646

meta.source: patent US5140009A
